experimental_target: FLuc-C-NLuc (firefly luciferase) (Photinus pyralis, UniProt P08659, form not given/L550V)
Sequence (P08659 2-550 L550V, form open): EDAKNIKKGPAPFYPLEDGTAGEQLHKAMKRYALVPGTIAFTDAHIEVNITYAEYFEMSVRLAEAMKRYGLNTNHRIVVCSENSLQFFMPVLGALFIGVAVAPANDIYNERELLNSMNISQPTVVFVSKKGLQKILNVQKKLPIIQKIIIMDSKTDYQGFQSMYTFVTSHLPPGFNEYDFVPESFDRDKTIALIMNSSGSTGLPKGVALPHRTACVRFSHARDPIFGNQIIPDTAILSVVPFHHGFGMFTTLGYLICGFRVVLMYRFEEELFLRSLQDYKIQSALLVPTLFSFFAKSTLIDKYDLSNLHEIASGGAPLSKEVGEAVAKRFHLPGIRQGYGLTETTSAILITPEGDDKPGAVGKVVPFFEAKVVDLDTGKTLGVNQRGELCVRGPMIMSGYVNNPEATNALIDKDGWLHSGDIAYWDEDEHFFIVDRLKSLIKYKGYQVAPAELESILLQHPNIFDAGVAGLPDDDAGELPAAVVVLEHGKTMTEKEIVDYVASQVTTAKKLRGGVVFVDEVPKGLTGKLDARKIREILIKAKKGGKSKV
protocol_notes: SDR assay, FLuc-C-NLuc
measurement_parameters: Log[Compound], M -8.30; 10 mM ATP
reported_endpoint: SDR+ATP
Lab note: jot the number down without any unit.

Below: 4 molecules and their reported SDR+ATP.
>  <molecule>
COc1ccc(NC(=O)C2CCN(C(=O)c3ncn4c3COC(c3ccccc3)C4)CC2)cc1Cl (centres unmarked)

>  <quantitative_readout>
10.09

$$$$
>  <molecule>
CC1CCC(NC(=O)C2CCN(C(=O)c3ncn4c3COC(c3ccc(Cl)cc3)C4)CC2)CC1 (centres unmarked)

>  <quantitative_readout>
1.78

$$$$
>  <molecule>
O=C(Nc1cccc(F)c1)C1CCN(C(=O)c2ncn3c2COC(c2ccccc2)C3)CC1 (centres unmarked)

>  <quantitative_readout>
7.51

$$$$
>  <molecule>
CC(NC(=O)C1CCN(C(=O)c2ncn3c2COC(c2ccc(F)cc2)C3)CC1)c1ccc(F)cc1 (centres unmarked)

>  <quantitative_readout>
0.0052

$$$$

Now for another entry.
Sample CC(CNC(=O)C1CCN(C(=O)c2ncn3c2COC(c2ccccc2)C3)CC1)c1ccccc1 (centres unmarked) — what was its SDR+ATP?
8.11
